Data credit: the supplement of paper PMC4723716

# Tested on: Plasmodium falciparum NF54 gametocytes
# method.description: viability index relative to DMSO control (fraction); higher = less gametocyte killing
# particulars: gametocyte stage: Stage III viability index; 12.5 µM; incubation time: 72 h
attribute.measured: viability index

[[record]]
compound = "CCn1c(CN2CCN(Cc3ccccc3)CC2)nc2cc(NC(=O)c3cccs3)ccc21"
assay_target = "Plasmodium falciparum NF54 gametocytes"
val = 0.924


# viability index (compound: "Oc1c(CN2CCN(c3ccccc3F)CC2)cc(Br)c2cccnc12" ) is 0.0353

Lookup result for "Cc1ccc(-c2cc(C(=O)Nc3ccc(S(=O)(=O)N4CCCCC4)cc3)[nH]n2)c(O)c1" ; measured viability index: 0.973

The reported viability index of the compound "CCOc1ccc(N2C(N)=NC(N)=NC2(C)C)cc1" was 0.844

COc1ccc(C(=O)NC(c2ccc(Cl)cc2Cl)c2cc(Cl)c3cccnc3c2O)cc1 (centres undefined) yielded viability index of 0.0814

// field: viability index; key: N=c1n(CCN2CCCCC2)c2ccccc2n1CC(O)c1cccc(Br)c1 (centres undefined) ; value = 0.133

Memo: "O=C(Nc1ccccc1O)c1ccc(Oc2cccc(C(=O)Nc3ccccc3O)c2)cc1" , reported viability index: 0.434

Reported viability index of "CC(=O)Nc1nnc(SCc2c(C)cc(C(C)(C)C)cc2C)s1" : 0.894

---

# Test system: Plasmodium falciparum NF54 gametocytes
# method.description: viability index relative to DMSO control (fraction); higher = less gametocyte killing
# particulars: gametocyte stage: Stage II viability index; 12.5 µM; incubation time: 72 h
Parameter: viability index. Scope: all listed entries.
Form field (numeric): enter value without unit.

Worked set:
[[record]]
compound = "Fc1ccc2[nH]c3c(NCCCN4CCOCC4)ncnc3c2c1"
assay_target = "Plasmodium falciparum NF54 gametocytes"
val = 0.564

[[record]]
compound = "CCOC(=O)C1(Cc2ccccc2)CCN(Cc2cccc(OC)c2O)CC1"
assay_target = "Plasmodium falciparum NF54 gametocytes"
val = 0.0716

[[record]]
compound = "Cc1ccc(N2C3c4ccccc4N(S(=O)(=O)c4ccc(C)cc4)C2c2ccccc2N3S(=O)(=O)c2ccc(C)cc2)cc1"
assay_target = "Plasmodium falciparum NF54 gametocytes"
val = 0.77

[[record]]
compound = "CCCCCC(=O)N1c2ccccc2N=C2CC(c3ccc(OC)c(OC)c3)CC(O)=C2C1c1ccc(C(F)(F)F)cc1 (centres undefined)"
assay_target = "Plasmodium falciparum NF54 gametocytes"
val = 0.0251

[[record]]
compound = "CCCCCCOC(=O)C1=C(C)NC(=O)NC1c1ccccc1F (centres undefined)"
assay_target = "Plasmodium falciparum NF54 gametocytes"
val = 0.896

[[record]]
compound = "COc1ccc2sc(N(Cc3cccnc3)C(=O)c3ccc(C#N)cc3)nc2c1"
assay_target = "Plasmodium falciparum NF54 gametocytes"
val = 0.773

[[record]]
compound = "O=C(Nc1ccc(-c2nc3cc4ccccc4cc3[nH]2)cc1)c1cccc(Br)c1"
assay_target = "Plasmodium falciparum NF54 gametocytes"
val = 0.421

[[record]]
compound = "Cc1cccc(N2C(=O)C3C(C2=O)C2(c4ccccc4)C(=O)C3(c3ccccc3)C(c3ccc4c(c3)OCO4)=C2c2ccc3c(c2)OCO3)c1 (centres undefined)"
assay_target = "Plasmodium falciparum NF54 gametocytes"
val = 0.896


// sample "Oc1c2c(nc3cc(-c4ccccc4)nn13)CCCC2" , its viability index was 0.786
